B1: CPEB3 Ribozyme (parent)
chain: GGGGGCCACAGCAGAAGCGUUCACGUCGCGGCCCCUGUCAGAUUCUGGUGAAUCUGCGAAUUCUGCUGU

Variants of: B1
TEST: self-cleavage, relative activity (ratio to wild type); higher = more cleavage; co-transcriptional
MEASURED METRIC: self-cleavage

G5A C7U; 0.501
G11A G47A; 0.942

Which value of self-cleavage has been reported for U21G G25C in the records? 0.185

Try this variant too: G25U U44G 0.146

Try this variant too: G4C C6A 0.0438

Try this variant too: G11U G19C 0.135

Try this variant too: G17C A60C 0.109

Try this variant too: G2C U38G 0.0453

Try this variant too: G25A U64A 0.19

Try this variant too: G2C U46G 0.0683

Try this variant too: G17U A51C 0.423
